All values here come from patent US20240391954A1.

Listed here: items and their measured MC4R selectivity vs MC1R.
- tested.target: human MC4R (Homo sapiens)
- Construct: host or cells: HEK-293 cells stably expressing the GScAMP22F split-luciferase cAMP sensor and hMC4R, G418 selection
- Sequence (P32245 whole entry): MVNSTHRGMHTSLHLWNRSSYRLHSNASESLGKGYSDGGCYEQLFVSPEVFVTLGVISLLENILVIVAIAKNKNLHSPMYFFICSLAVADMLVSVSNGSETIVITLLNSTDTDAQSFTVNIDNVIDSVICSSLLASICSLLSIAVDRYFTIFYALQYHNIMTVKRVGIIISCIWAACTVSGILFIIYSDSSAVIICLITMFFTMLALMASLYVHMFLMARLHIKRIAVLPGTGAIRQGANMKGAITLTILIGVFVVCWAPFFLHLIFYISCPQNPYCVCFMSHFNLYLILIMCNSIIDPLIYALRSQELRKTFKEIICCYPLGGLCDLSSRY
- experiment.description: split-luciferase cAMP sensor assay, agonist mode (measurement window 1), hMC4R
- Type: cell-based
Positions of bridges follow the written chain, without caps; N, C: chain ends. Non-standard residues stand in square brackets, D forms with d. Residues, ends and D or L forms follow the SMILES beside them. dBip = N[C@H](Cc1ccc(-c2ccccc2)cc1)C(=O)O; Phe(4-Br) = N[C@@H](Cc1ccc(Br)cc1)C(=O)O; dPhe(4-Br) = N[C@H](Cc1ccc(Br)cc1)C(=O)O; dPhe(4-I) = N[C@H](Cc1ccc(I)cc1)C(=O)O; d(αMeF) = C[C@@](N)(Cc1ccccc1)C(=O)O; d(hPhe) = N[C@H](CCc1ccccc1)C(=O)O; dNMeF = CN[C@H](Cc1ccccc1)C(=O)O; Nle = CCCC[C@H](N)C(=O)O
measured.quantity: MC4R selectivity vs MC1R

1) CC(=O)N[C@@H](CCCNC(=N)N)C(=O)N[C@H]1CSSC[C@@H](C(N)=O)NC(=O)[C@H](Cc2ccccc2)NC(=O)[C@H](CCCNC(=N)N)NC(=O)[C@@H](Cc2ccc(Br)cc2)NC(=O)[C@H](CCCNC(=N)N)NC(=O)[C@@H](C)NC1=O [CTX-1258] (Ac-RC[dA]R[dPhe(4-Br)]RFC-NH2; disulfide 2-8); 0.53
2) CC(=O)N[C@@H](CCCNC(=N)N)C(=O)N[C@H]1CSSC[C@@H](C(=O)N[C@@H](CCCCN)C(=O)N2CCC[C@H]2C(=O)N[C@H](C(N)=O)C(C)C)NC(=O)[C@@H](Cc2c[nH]c3ccccc23)NC(=O)[C@H](CCCNC(=N)N)NC(=O)[C@@H](Cc2ccc(Br)cc2)NC(=O)[C@H](CCCNC(=N)N)NC(=O)[C@@H](C)NC1=O [CTX-1216] (Ac-RC[dA]R[dPhe(4-Br)]R[dW]CKPV-NH2; disulfide 2-8 (inferred)); 0.82
3) CC(=O)N[C@@H](CCCNC(=N)N)C(=O)N[C@H]1CSSC[C@@H](C(N)=O)NC(=O)[C@@H](Cc2c[nH]c3ccccc23)NC(=O)[C@H](CCCNC(=N)N)NC(=O)[C@@H](CCc2ccccc2)NC(=O)[C@H](CCCNC(=N)N)NC(=O)[C@@H](C)NC1=O [CTX-1239] (Ac-RC[dA]R[d(hPhe)]R[dW]C-NH2; disulfide 2-8); 0.1
4) CC(=O)N[C@@H](CCCNC(=N)N)C(=O)N[C@H]1CSSC[C@@H](C(N)=O)NC(=O)[C@@H](Cc2c[nH]c3ccccc23)NC(=O)[C@H](CCCNC(=N)N)NC(=O)[C@@H](Cc2ccccc2)N(C)C(=O)[C@H](CCCNC(=N)N)NC(=O)[C@@H](C)NC1=O [CTX-1272] (Ac-RC[dA]R[dNMeF]R[dW]C-NH2; disulfide 2-8 (inferred)); 0.21
5) CC(=O)N[C@@H](CCCNC(=N)N)C(=O)N[C@H]1CSSC[C@@H](C(N)=O)NC(=O)[C@H](Cc2c[nH]c3ccccc23)NC(=O)[C@H](CCCNC(=N)N)NC(=O)[C@H](Cc2ccc(Br)cc2)NC(=O)[C@H](CCCNC(=N)N)NC(=O)[C@@H](C)NC1=O [CTX-1212] (Ac-RC[dA]R[Phe(4-Br)]RWC-NH2; disulfide 2-8); 0.07
6) CC(=O)N[C@@H](CCCNC(=N)N)C(=O)N[C@H]1CSSC[C@@H](C(N)=O)NC(=O)[C@@H](Cc2c[nH]c3ccccc23)NC(=O)[C@H](CCCNC(=N)N)NC(=O)[C@@H](CCc2ccccc2)NC(=O)[C@H](CCCNC(=N)N)NC(=O)[C@@H](C)NC1=O [CTX-1277] (Ac-RC[dA]R[d(hPhe)]R[dW]C-NH2; disulfide 2-8 (inferred)); 0.05
7) CCCC[C@H](NC(=O)[C@H](CCCNC(=N)N)NC(C)=O)C(=O)N[C@H]1CSSC[C@@H](C(N)=O)NC(=O)[C@H](Cc2c[nH]c3ccccc23)NC(=O)[C@H](CCCNC(=N)N)NC(=O)[C@@H](Cc2ccc(OC)cc2)NC(=O)[C@H](CCCNC(=N)N)NC1=O [CTX-1614] (Ac-R[Nle]CR[dY](Me)RWC-NH2; disulfide 3-8 (inferred)); 0.08
8) CC(=O)N[C@@H](CCCNC(=N)N)C(=O)N[C@H]1CSSC[C@@H](C(N)=O)NC(=O)[C@@H](Cc2c[nH]c3ccccc23)NC(=O)[C@H](CCCNC(=N)N)NC(=O)[C@@H](Cc2ccc(-c3ccccc3)cc2)NC(=O)[C@H](CCCNC(=N)N)NC(=O)[C@@H](C)NC1=O [CTX-1243] (Ac-RC[dA]R[dBip]R[dW]C-NH2; disulfide 2-8 (inferred)); 0.21
9) CC(=O)N[C@@H](CCCNC(=N)N)C(=O)N[C@H]1CSSC[C@@H](C(=O)N[C@@H](CCCCN)C(=O)N2CCC[C@H]2C(N)=O)NC(=O)[C@@H](Cc2c[nH]c3ccccc23)NC(=O)[C@H](CCCNC(=N)N)NC(=O)[C@@H](Cc2ccc(Br)cc2)NC(=O)[C@H](CCCNC(=N)N)NC(=O)[C@@H](C)NC1=O [CTX-1217] (Ac-RC[dA]R[dPhe(4-Br)]R[dW]CKP-NH2; disulfide 2-8); 1.12
10) CCCC[C@H](NC(C)=O)C(=O)N[C@H]1CSSC[C@@H](C(N)=O)NC(=O)[C@@H](Cc2c[nH]c3ccccc23)NC(=O)[C@H](CCCNC(=N)N)NC(=O)[C@@H](Cc2ccc(I)cc2)NC(=O)[C@H](Cc2c[nH]cn2)NC1=O [CTX-1234] (Ac-[Nle]CH[dPhe(4-I)]R[dW]C-NH2; disulfide 2-7 (inferred)); 0.2
11) CC(=O)N[C@@H](CCCNC(=N)N)C(=O)N[C@H]1CSSC[C@@H](C(N)=O)NC(=O)[C@@H](Cc2c[nH]c3ccccc23)NC(=O)[C@H](CCCNC(=N)N)NC(=O)[C@@](C)(Cc2ccccc2)NC(=O)[C@H](CCCNC(=N)N)NC(=O)[C@@H](C)NC1=O [CTX-1279] (Ac-RC[dA]R[d(αMeF)]R[dW]C-NH2; disulfide 2-8); 0.83
12) CC(=O)N[C@H]1CSSC[C@@H](C(N)=O)NC(=O)[C@H](Cc2ccccc2)NC(=O)[C@H](CCCNC(=N)N)NC(=O)[C@@H](Cc2ccc(Br)cc2)NC(=O)[C@H](CCCNC(=N)N)NC(=O)CNC1=O [CTX-1640] (Ac-CGR[dPhe(4-Br)]RFC-NH2; disulfide 1-7 (inferred)); 3.72

---

- experiment.description: Mouse plasma stability
- Format: in vitro ADME
- measurement.context: pooled mouse plasma, 37° C.
Positions of bridges follow the written chain, without caps; N, C: chain ends. Non-standard residues stand in square brackets, D forms with d. Residues, ends and D or L forms follow the SMILES beside them. dPhe(4-Br) = N[C@H](Cc1ccc(Br)cc1)C(=O)O; Aib = CC(C)(N)C(=O)O
measured.quantity: half-life at 1 µM

1) CC(=O)N[C@@H](CCCNC(=N)N)C(=O)N[C@H]1CSSC[C@@H](C(N)=O)NC(=O)[C@@H](Cc2c[nH]c3ccccc23)NC(=O)[C@H](CCCNC(=N)N)NC(=O)[C@@H](Cc2ccc(Br)cc2)NC(=O)[C@H](CCCNC(=N)N)NC(=O)C(C)(C)NC1=O [CTX-1246] (Ac-RC[Aib]R[dPhe(4-Br)]R[dW]C-NH2; disulfide 2-8 (inferred)); > 4 h
2) CC(=O)N[C@@H](CCCNC(=N)N)C(=O)N[C@H]1CSSC[C@@H](C(N)=O)NC(=O)[C@H](Cc2c[nH]c3ccccc23)NC(=O)[C@H](CCCNC(=N)N)NC(=O)[C@@H](Cc2ccccc2)NC(=O)[C@H](CCCNC(N)=O)NC(=O)[C@@H](C)NC1=O; > 4 h
3) CC(=O)N[C@@H](CCCNC(=N)N)C(=O)N[C@H]1CSSC[C@@H](C(N)=O)NC(=O)[C@H](Cc2c[nH]c3ccccc23)NC(=O)[C@H](CCCNC(=N)N)NC(=O)[C@@H](Cc2ccccc2)NC(=O)[C@H](CCCNC(=N)N)NC(=O)[C@@H](C)NC1=O [CTX-1211] (Ac-RC[dA]R[dF]RWC-NH2; disulfide 2-8 (inferred)); > 3 h
